So I've got a bunch of compounds here, and I need their IC50 values.
- System: A549
- TEST NAME: Cytotoxicity against human A549 cells assessed as reduction in cell viability by MTT assay
- Assay type: functional, cell-based
Answers are plain numbers, in µM.

Answered examples (3):
{"STRUCTURE AS SMILES": "CC(C)CCCCCCCCC(=O)N[C@@H](CCCN(O)C=O)C(=O)N[C@@H](CO)C(=O)N(O)CCC[C@@H]1NC(=O)[C@H](CCCN(O)C=O)NC1=O", "IC50 (µM)": 13}
{"STRUCTURE AS SMILES": "CCCCCCCCCCCC(=O)N[C@@H](CCCN(O)C=O)C(=O)N[C@@H](CO)C(=O)N(O)CCC[C@@H]1NC(=O)[C@H](CCCN(O)C=O)NC1=O", "IC50 (µM)": 11}
{"STRUCTURE AS SMILES": "CCCCCCCCCCCCC(=O)N[C@@H](CCCN(O)C=O)C(=O)N[C@@H](CO)C(=O)N(O)CCC[C@@H]1NC(=O)[C@H](CCCN(O)C=O)NC1=O", "IC50 (µM)": 3.4}

I need IC50 for every entry listed below, if you could help.
1. CC(C)CCCCCCCCCCC(=O)N[C@@H](CCCN(O)C=O)C(=O)N[C@@H](CO)C(=O)N(O)CCC[C@@H]1NC(=O)[C@H](CCCN(O)C=O)NC1=O
2. COc1cccc2c1C(=O)c1c(O)c3c(c(O)c1C2=O)C[C@@](O)(C(=O)CO)C[C@@H]3O[C@H]1C[C@H](N)[C@H](O)[C@H](C)O1
3. CC(C)CCCCCCCCCCCC(=O)N[C@@H](CCCN(O)C=O)C(=O)N[C@@H](CO)C(=O)N(O)CCC[C@@H]1NC(=O)[C@H](CCCN(O)C=O)NC1=O
4. CCCCCCCCCCCCCCC(=O)N[C@@H](CCCN(O)C=O)C(=O)N[C@@H](CO)C(=O)N(O)CCC[C@@H]1NC(=O)[C@H](CCCN(O)C=O)NC1=O

[14, 0.9, 8.1, 3.3]

====

So I've got a bunch of compounds here, and I need their MIC values.
- Test system: Escherichia coli
- TEST NAME: Antibacterial activity against Escherichia coli ATCC 35218 assessed as inhibition of bacterial growth incubated for 18 hrs by Kirby-Bauer disk diffusion method
- Assay type: functional

{"STRUCTURE AS SMILES": "CC(C)CCCCCCCCCC(=O)N[C@@H](CCCN(O)C=O)C(=O)N[C@@H](CO)C(=O)N(O)CCC[C@@H]1NC(=O)[C@H](CCCN(O)C=O)NC1=O", "ENDPOINT RESULT": "> 100 µM"}
{"STRUCTURE AS SMILES": "CCCCCCCCCCCCCCC(=O)N[C@@H](CCCN(O)C=O)C(=O)N[C@@H](CO)C(=O)N(O)CCC[C@@H]1NC(=O)[C@H](CCCN(O)C=O)NC1=O", "ENDPOINT RESULT": "> 100 µM"}

# evaluate next
Which MIC is reported for this compound? `CCCCCCCCCCCCC(=O)N[C@@H](CCCN(O)C=O)C(=O)N[C@@H](CO)C(=O)N(O)CCC[C@@H]1NC(=O)[C@H](CCCN(O)C=O)NC1=O`
> 100 µM

====

- Test system: MCF7
- TEST NAME: Cytotoxicity against human MCF7 cells assessed as reduction in cell viability by MTT assay
- Type: functional, cell-based
So I've got a bunch of compounds here, and I need their IC50 values.

Answered examples (5):
{"STRUCTURE AS SMILES": "CC(C)CCCCCCCCC(=O)N[C@@H](CCCN(O)C=O)C(=O)N[C@@H](CO)C(=O)N(O)CCC[C@@H]1NC(=O)[C@H](CCCN(O)C=O)NC1=O", "ENDPOINT RESULT": "> 20 µM"}
{"STRUCTURE AS SMILES": "CCCCCCCCCCCCCC(=O)N[C@@H](CCCN(O)C=O)C(=O)N[C@@H](CO)C(=O)N(O)CCC[C@@H]1NC(=O)[C@H](CCCN(O)C=O)NC1=O", "ENDPOINT RESULT": "> 20 µM"}
{"STRUCTURE AS SMILES": "CC(C)CCCCCCCCCCCC(=O)N[C@@H](CCCN(O)C=O)C(=O)N[C@@H](CO)C(=O)N(O)CCC[C@@H]1NC(=O)[C@H](CCCN(O)C=O)NC1=O", "ENDPOINT RESULT": "> 20 µM"}
{"STRUCTURE AS SMILES": "CC(C)CCCCCCCCCCC(=O)N[C@@H](CCCN(O)C=O)C(=O)N[C@@H](CO)C(=O)N(O)CCC[C@@H]1NC(=O)[C@H](CCCN(O)C=O)NC1=O", "ENDPOINT RESULT": "> 20 µM"}
{"STRUCTURE AS SMILES": "CCCCCCCCCCCCCCC(=O)N[C@@H](CCCN(O)C=O)C(=O)N[C@@H](CO)C(=O)N(O)CCC[C@@H]1NC(=O)[C@H](CCCN(O)C=O)NC1=O", "ENDPOINT RESULT": "5.9 µM"}

I need IC50 for every entry listed below, if you could help.
1. CCCCCCCCCCCC(=O)N[C@@H](CCCN(O)C=O)C(=O)N[C@@H](CO)C(=O)N(O)CCC[C@@H]1NC(=O)[C@H](CCCN(O)C=O)NC1=O
2. CCCCCCCCCCCCC(=O)N[C@@H](CCCN(O)C=O)C(=O)N[C@@H](CO)C(=O)N(O)CCC[C@@H]1NC(=O)[C@H](CCCN(O)C=O)NC1=O
3. CC(C)CCCCCCCCCC(=O)N[C@@H](CCCN(O)C=O)C(=O)N[C@@H](CO)C(=O)N(O)CCC[C@@H]1NC(=O)[C@H](CCCN(O)C=O)NC1=O

["17 µM", "> 20 µM", "> 20 µM"]
